Study system: Follistatin (Homo sapiens)
Assay notes: follistatin binders on small-molecule microarrays, primary screen, biochemical, small-molecule microarray, 635/667 nm fluorescence (AID 1132)
Experimental conditions: FST binding, 635 nm fluorescence, higher = more signal
Recorded metric: composite z-score

# annotated cases, reported composite z-score shown
Compound | Study system | Val
C=CCC(OC(C)=O)[C@@H]1[C@@H](N(Cc2ccc(-c3cccc(C(F)(F)F)c3)o2)C(=O)c2ccc(C)cc2)c2cc(OCCCO)ccc2N1C(=O)c1ccc(-c2ccccc2)cc1 (stereo partly drawn) | Follistatin (Homo sapiens) | 0.65
N#Cc1ccc(NN2C(C(O)C3CCCCC3)C=CC3C(=O)N(c4ccccc4)C(=O)C32)cc1 (stereo not drawn) | Follistatin (Homo sapiens) | 1.27
COc1cc(CO)ccc1OC(C)=O | Follistatin (Homo sapiens) | 1.07
COCC1=C2[C@@H](CCc3ccccc3)OB(O)C[C@@H]2[C@@H]2C(=O)N(Cc3ccccc3)C(=O)[C@@H]2C1 | Follistatin (Homo sapiens) | 0.193
CC(C)C(O)C1C=CC2C(=O)N(c3ccccc3)C(=O)C2N1Nc1ccc(C#N)cc1 (stereo not drawn) | Follistatin (Homo sapiens) | 0.97
COc1ccc(C#Cc2ccc3c(c2)[C@]2(C(=O)N3)[C@H](c3ccc(O)cc3)N3[C@H](c4ccccc4)[C@H](c4ccccc4)OC(=O)[C@H]3[C@@H]2C(=O)N2CCCCCCC2)cc1 | Follistatin (Homo sapiens) | 1.49

Lab note: each compound below needs its composite z-score filled in.
1. COC(=O)[C@]1(Cc2ccccc2N=[N+]=[N-])N=C(c2ccc(OCCCO)cc2)O[C@@H]1c1ccccc1N=[N+]=[N-]
2. Cc1c(NC(=O)CC#N)c(=O)n(-c2ccccc2)n1C

Result ::
[1.25, 0.116]

---

Study system: Torsin-1A (Homo sapiens) (UniProt O14656)
Sequence (O14656 whole entry, looked up): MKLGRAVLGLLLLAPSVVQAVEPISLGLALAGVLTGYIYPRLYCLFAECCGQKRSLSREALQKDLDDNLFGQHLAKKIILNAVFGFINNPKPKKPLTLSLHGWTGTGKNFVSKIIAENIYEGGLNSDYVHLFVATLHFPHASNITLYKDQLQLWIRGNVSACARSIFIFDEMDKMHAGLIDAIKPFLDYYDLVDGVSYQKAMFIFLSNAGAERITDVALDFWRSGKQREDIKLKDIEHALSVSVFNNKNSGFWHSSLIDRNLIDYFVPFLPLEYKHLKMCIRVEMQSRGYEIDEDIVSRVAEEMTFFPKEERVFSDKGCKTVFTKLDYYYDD
Assay notes: small-molecule binders of mutant TOR1A in lysate, primary screen, cell lysate, small-molecule microarray, COS7 lysate, 635/667 nm fluorescence (AID 1150);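 note: score pools 667 nm emission and signal to noise measuring lysate protein binding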
Experimental conditions: COS7 hTOR1A mutant lysate, 635 nm fluorescence, higher = more signal
Kindly state composite z-score for each of the entries shown.
One number for each entry.

# annotated cases, reported composite z-score shown
Compound | Study system | Val
CC(C)NC(=O)[C@@H]1c2ccccc2C(=O)N(Cc2ccccc2Cl)[C@H]1c1ccc(CO)cc1 | Torsin-1A (Homo sapiens) (UniProt O14656) | 0.343
O=C1C[C@@](C(=O)NC2CC2)(c2ccc([N+](=O)[O-])cc2)[C@@H](c2ccc(CO)cc2)N1CC12CC3CC(CC(C3)C1)C2 | Torsin-1A (Homo sapiens) (UniProt O14656) | -0.176
O=C1O[C@H](c2ccccc2)[C@H](c2ccccc2)N2[C@H]1[C@@H](C(=O)O)[C@]1(C(=O)Nc3ccc(C#CC4(O)CCCCCC4)cc31)[C@H]2c1ccc(OCCO)cc1 | Torsin-1A (Homo sapiens) (UniProt O14656) | 0.617

Next up:
Query :: Name the reported composite z-score value associated with the compound O=C1OCCC=C[C@H]2OC34C=CCN(Cc5ccccc5)C(=O)[C@H]3N(CCCCCO)C(=O)[C@@H]4C12 (some centres undefined)
Result :: 2.07

---

Assay notes: RPMI8226 myeloma cell viability, profiling panel, resazurin fluorescence, basal, 24 h, PK04 Diversity Set (AID 1180);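 note: RPMI8826 multiple myeloma cell line at 5000 cells per well; test concentration not given here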
Experimental conditions: higher = more signal
Recorded metric: z-score
Answers are plain numbers.

# annotated cases, reported z-score shown
Compound | Recorded metric | Val
CC(C)C(=C=CC[C@H](O)c1cccc(OCCO)c1)C[C@H](O)COCc1ccccc1 | z-score | 0.163
COC(=O)c1ccc(C(O)C2C=CC3C(=O)N(c4ccccc4)C(=O)C3N2Nc2ccc(C#N)cc2)o1 (centres undefined) | z-score | -0.357
O=C1OCCC=C[C@H]2OC34C=CCN(Cc5ccccc5)C(=O)[C@H]3N(CCCCCO)C(=O)[C@@H]4C12 (some centres undefined) | z-score | 1.4

Next up:
Query :: Name the reported z-score value associated with the compound CCOc1cc(C(O)C2C=CC3C(=O)N(c4ccccc4)C(=O)C3N2Nc2ccc([N+](=O)[O-])cc2)ccc1O (centres undefined)
Result :: -0.901

---

Assay notes: HepG2 liver cancer cell viability effects, profiling panel, resazurin fluorescence, 24 h, PK04 Diversity Set (AID 1172); note: test concentration not given here
Experimental conditions: higher = more signal
Recorded metric: z-score

# annotated cases, reported z-score shown
Molecule | z-score
Cc1ccccc1C(O)C1C=CC2C(=O)N(C)C(=O)C2N1N1CCCCC1 (centres undefined) | -0.424
COc1ccc(CCN2C(=O)[C@@]3(Cc4ccccc42)c2ccccc2C(=O)N(Cc2ccccc2Cl)[C@H]3c2ccc(CO)cc2)cc1 | -0.349
CCOC(=O)C[C@H]1[C@H](OC(=O)Cc2ccc3c(c2)OCO3)[C@@H](NC(=O)c2ccc(-c3ccccc3)cc2)c2cc(OCCCO)ccc2N1C(=O)c1ccccc1 | 0.0575

Query :: Name the reported z-score value associated with the molecule `[N-]=[N+]=NCc1ccccc1C[C@]1(C(=O)O)N=C(c2ccc(OCCCO)cc2)O[C@H]1c1ccccc1CN=[N+]=[N-]`
Result :: 0.924

---

Study system: Neurogenic locus notch homolog protein 2 (Homo sapiens)
Assay notes: Notch2 binders on small-molecule microarrays, primary screen, biochemical, small-molecule microarray, 635 nm fluorescence, stem cell growth factors (AID 1073)
Experimental conditions: Notch2 binding, higher = more signal
Kindly state composite z-score for each of the entries shown.
Answers are plain numbers.

# annotated cases, reported composite z-score shown
Compound | Val
CCOC(=O)C1=CC[C@@H](c2ccccc2)N(S(=O)(=O)c2ccc(C)cc2)[C@H]1C(=O)OCC | 1.25
[N-]=[N+]=NCc1ccccc1C[C@@]1(C(=O)N2CCOCC2)N=C(c2ccc(OCCCO)cc2)O[C@@H]1c1ccccc1CN=[N+]=[N-] | 1.52
CCOC(=O)C[C@H]1[C@H](OC(=O)Cc2ccc3c(c2)OCO3)[C@@H](NC(=O)C2CCCCC2)c2cc(OCCCO)ccc2N1C(=O)Cc1ccc(OC)cc1 | 1.17

Next up:
Query :: Name the reported composite z-score value associated with the compound COc1cccc(C(=O)O[C@H]2CC[C@]3(C)C4=C(CCC3C2(C)C)[C@]2(C)CC[C@H]([C@H](C)CCCC(C)C)[C@@]2(C)CC4)c1 (some centres undefined)
Result :: -0.87

---

Study system: Luciferin 4-monooxygenase (Photinus pyralis) (UniProt P08659)
Sequence (P08659 whole entry, looked up): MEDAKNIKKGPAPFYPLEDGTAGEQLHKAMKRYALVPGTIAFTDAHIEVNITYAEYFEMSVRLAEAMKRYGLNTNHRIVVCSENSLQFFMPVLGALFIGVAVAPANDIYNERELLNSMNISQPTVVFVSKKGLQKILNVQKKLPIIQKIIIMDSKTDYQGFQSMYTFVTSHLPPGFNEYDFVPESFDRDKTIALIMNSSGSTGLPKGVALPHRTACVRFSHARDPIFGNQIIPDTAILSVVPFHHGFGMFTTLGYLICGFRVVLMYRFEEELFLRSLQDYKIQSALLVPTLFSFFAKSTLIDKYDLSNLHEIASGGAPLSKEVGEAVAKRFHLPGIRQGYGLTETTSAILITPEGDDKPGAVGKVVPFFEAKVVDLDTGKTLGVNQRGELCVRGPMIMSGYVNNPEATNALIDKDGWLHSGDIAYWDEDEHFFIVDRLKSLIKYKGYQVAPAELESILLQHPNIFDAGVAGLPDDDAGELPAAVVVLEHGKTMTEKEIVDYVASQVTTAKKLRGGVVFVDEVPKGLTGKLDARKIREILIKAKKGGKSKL
Assay notes: firefly luciferase enzyme inhibitors, primary screen, biochemical, luminescence, purified enzyme, 2006 set (AID 1141);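 note: cell-free assay with purified firefly luciferase at 100 ng per well in PBS; test concentration not given here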
Experimental conditions: SteadyGlo luminescence, 30 min, higher = more signal, called active from +8 up or from −8 down
// map z-score to label using LOW (below -0.6), MEDIUM (-0.6 to below 0.2), HIGH (0.2 or more)

Molecule | Classification
CCOC(=O)C1=CC[C@@H](c2ccccc2)N(S(=O)(=O)c2ccc(C)cc2)[C@H]1C(=O)OCC | HIGH

Query :: Tag the class for COC(=O)c1ccc(C23CC2(C(NP(=O)(c2ccccc2)c2ccccc2)c2ccccc2)C3)cc1 (stereo not drawn)
Result :: LOW

Query :: Tag the class for C=CCC(OC(C)=O)[C@@H]1[C@@H](N(Cc2cccc3ccccc23)C(=O)c2cccc3ccccc23)c2cc(OCCCO)ccc2N1C(=O)c1ccc2ccccc2n1 (stereo partly drawn)
Result :: HIGH

Query :: Tag the class for `O=C1O[C@H](c2ccccc2)[C@H](c2ccccc2)N2[C@H]1[C@@H](C(=O)NC[C@H](O)c1ccccc1)[C@]1(C(=O)Nc3ccc(C#CCCO)cc31)[C@H]2c1ccc(O)cc1`
Result :: MEDIUM

Query :: Tag the class for `COCCCNC(=O)[C@@]1(c2ccc([N+](=O)[O-])cc2)CC(=O)N(CC23CC4CC(CC(C4)C2)C3)[C@@H]1c1ccc(CO)cc1`
Result :: MEDIUM

Query :: Tag the class for `CCCCCCc1nc(CCCc2cc3c(c(CCCCCC)n2)[Si](C(C)C)(C(C)C)OC3)cc2c1[Si](C(C)C)(C(C)C)OC2`
Result :: HIGH

---

Assay notes: small-molecule microarray binders of probe aLefty2, primary screen, biochemical, biotinylated probe, 635/667 nm fluorescence (AID 1094);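 note: score merges spot fluorescence near 667 nm with spot signal-to-noise ratio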
Experimental conditions: higher = more signal
Kindly state composite z-score for each of the entries shown.
Answers are plain numbers.

# annotated cases, reported composite z-score shown
Compound | Val
C=CCNC(=O)[C@@H]1[C@H]2C(=O)O[C@H](c3ccccc3)[C@H](c3ccccc3)N2[C@H](c2ccc(O)cc2)[C@@]12C(=O)N(C(=O)OCCOC)c1ccccc12 | -0.0458
CCOC(=O)C[C@H]1[C@H](OC(=O)Cc2ccc3c(c2)OCO3)[C@@H](NC(=O)C2CCCCC2)c2cc(OCCCO)ccc2N1C(=O)Cc1ccc(OC)cc1 | -0.0313
CCCC[C@H]1OB(O)C[C@H]2C1=C(C)C[C@H]1C(=O)N(Cc3ccccc3)C(=O)[C@H]12 | -0.102
COc1ccccc1CN1C(=O)c2ccccc2[C@@H](C(=O)NCCN2CCOCC2)[C@@H]1c1ccc(CO)cc1 | -0.0948
COC(=O)[C@@]1(Cc2ccc(F)cc2)[C@H]2c3cc(C(=O)N(C)C)n(CCc4ccccn4)c3C[C@H]2CN1C(=O)c1ccccc1 | -0.0278

Lab note: each compound below needs its composite z-score filled in.
1. O=C1C2C=CC(C(O)c3ccc(B(O)O)cc3)N(Nc3ccccc3)C2C(=O)N1c1ccccc1 (configuration not stated)
2. COc1cc2c(cc1O)C(C)N(Cc1cccc(OC(F)(F)F)c1)CC2 (configuration not stated)

Result ::
[0.229, -0.0719]

The reported measurements were obtained from PubChem BioAssay.
